- assayTarget: human Cot catalytic domain (30-397 amino acids) (Homo sapiens)
- Construct: Purified recombinant human Cot catalytic domain (30-397 amino acids) was purchased from Cama Biosciences; purchased Cama Biosciences (so in the source)
- assayNotes: High Throughput Cot Biochemical Assay (KinEASE TR-FRET)
- details: Cot KinEASE TR-FRET (HTRF) biochemical assay, 400 μM ATP; read-out: IC50 HTRF
assayEndpoint: pIC50
Quick note: pIC50 values are minus log10 of concentrations in mol/L.

Sample answers from the record:
compound	pIC50
[2H][C@](Nc1cc(Cl)c2ncc(C#N)c(Nc3cnc(F)c(F)c3)c2c1)(c1ccc(Cl)cc1)c1c[nH]nn1 [Example 387]	7.30
[2H][C@](Nc1cc(Cl)c2ncc(C#N)c(NCC(C)(C)C)c2c1)(c1cn(C2[C@H]3CN(C4COC4)C[C@@H]23)nn1)c1ccccc1Cl (stereo partly drawn) [Example 100]	7.80

**Q:** # input compound: [2H][C@](Nc1cc(Br)c2ncc(C#N)c(NCC(C)(C)C)c2c1)(c1ccc(Cl)cc1)c1cn(C2CC2)nn1 [Example 80] ; wanted: its pIC50
**A:** 7.51

**Q:** # input compound: N#Cc1cc([C@H](Nc2cc(Cl)c3ncc(C#N)c(Nc4cnc(F)c(F)c4)c3c2)c2c[nH]nn2)ccc1F [Example 372] ; wanted: its pIC50
**A:** 7.96

**Q:** # input compound: CN(C)Cc1cccc([C@H](Nc2cc(Cl)c3ncc(C#N)c(Nc4ccc(F)c(Cl)c4)c3c2)c2cn(C3CCN(C(C)(C)C)CC3)nn2)c1 [Compound 18] ; wanted: its pIC50
**A:** 8.15

**Q:** # input compound: [2H][C@](Nc1cc(C#N)c2ncc(C#N)c(NCC(C)(C)C)c2c1)(c1ccc(F)cc1)c1cn(C2(C(F)(F)F)CC2)nn1 [Example 130] ; wanted: its pIC50
**A:** 7.64

----------
- assayTarget: human Cot catalytic domain (30-397 amino acids) (Homo sapiens)
- Construct: Purified recombinant human Cot catalytic domain (30-397 amino acids) was purchased from Cama Biosciences; purchased Cama Biosciences (so in the source)
- assayNotes: High Throughput Cot Biochemical Assay (KinEASE TR-FRET)
- details: Cot KinEASE TR-FRET, 400 μM ATP; read-out: IC50 HTRF
assayEndpoint: IC50
Just so you know, I need the unit written after the number.

Sample answers from the record:
compound	IC50
N#Cc1cnc2c(Cl)cc(NC(c3ccc(Cl)cc3)c3cn([C@@H]4CCNC4)nn3)cc2c1Nc1ccc(F)c(Cl)c1 (stereo partly shown)	46 nM
COc1c([C@@H](Nc2cc(C#N)c3ncc(C#N)c(NCC(C)(C)C)c3c2)c2ccccc2Cl)nnn1C1(C)CC1	71 nM

**Q:** # input compound: CC(C)(C)CNc1c(C#N)cnc2c(Cl)cc(N[C@@H](c3ccc(F)cc3)c3cn(C4(C#N)CC4)nn3)cc12 ; wanted: its IC50
**A:** 12 nM

**Q:** # input compound: [2H][C@@](Nc1cc(I)c2ncc(C#N)c(NCC(C)(C)C)c2c1)(c1cn(C2CC2)nn1)c1ccccc1Cl ; wanted: its IC50
**A:** 111 nM

----------
Listed next: entries and their corresponding IC50.
- assayTarget: human Cot catalytic domain (30-397 amino acids) (Homo sapiens, UniProt P41279)
- Construct: Purified recombinant human Cot catalytic domain (30-397 amino acids) was purchased from Cama Biosciences; purchased Cama Biosciences (so in the source)
- Sequence (P41279 30-397): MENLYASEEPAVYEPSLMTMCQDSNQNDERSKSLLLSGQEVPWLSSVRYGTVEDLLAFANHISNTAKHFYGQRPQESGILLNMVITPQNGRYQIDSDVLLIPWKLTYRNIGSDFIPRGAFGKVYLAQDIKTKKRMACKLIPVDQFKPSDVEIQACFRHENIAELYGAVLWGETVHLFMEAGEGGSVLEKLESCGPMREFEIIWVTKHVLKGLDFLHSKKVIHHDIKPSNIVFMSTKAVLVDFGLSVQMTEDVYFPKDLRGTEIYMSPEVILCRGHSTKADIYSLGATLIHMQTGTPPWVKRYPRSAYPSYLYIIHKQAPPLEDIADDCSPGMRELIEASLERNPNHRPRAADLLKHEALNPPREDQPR
- assayNotes: High Throughput Cot Biochemical Assay (KinEASE TR-FRET)
- details: Cot KinEASE TR-FRET (HTRF) biochemical assay, 400 μM ATP; read-out: IC50 HTRF
Form entry: value (nM) — number only.

Sample answers from the record:
compound	IC50, nM
CC[C@@H](Nc1c(C#N)cnc2c(Cl)cc(N[C@@H](c3ccc(F)cc3)c3cn(-c4ccncc4)nn3)cc12)c1ccccc1	30
CC(C)C(C)(C)CNc1c(C#N)cnc2c(Cl)cc(N[C@@H](c3ccc(F)cc3)c3c[nH]nn3)cc12	38
CC(C)n1cc([C@@H](Nc2cc(Cl)c3ncc(C#N)c(N[C@@H](c4ccccc4)C(F)(F)F)c3c2)c2ccc(F)cc2)nn1	48
N#Cc1cnc2c(Cl)cc(NC(c3ccc(F)cc3)c3ccon3)cc2c1Nc1ccc(F)c(Cl)c1 (stereo not shown)	187

**Q:** // lookup IC50 | system=human Cot catalytic domain (30-397 amino acids) (Homo sapiens, UniProt P41279) | key= [2H][C@](Nc1cc(Cl)c2ncc(C#N)c(N[C@H](CC#N)c3ccccc3)c2c1)(c1ccc(F)cc1)c1cn(C2CC2)nn1
**A:** 4

**Q:** // lookup IC50 | system=human Cot catalytic domain (30-397 amino acids) (Homo sapiens, UniProt P41279) | key= CC(C)n1cc([C@@H](Nc2cc(Cl)c3ncc(C#N)c(N[C@H](c4ccccc4)C(F)(F)F)c3c2)c2ccc(F)cc2)nn1
**A:** 874

**Q:** // lookup IC50 | system=human Cot catalytic domain (30-397 amino acids) (Homo sapiens, UniProt P41279) | key= [2H][C@](Nc1cc(Cl)c2ncc(C#N)c(N[C@H](CCO)c3ccccc3)c2c1)(c1cccc(C#N)c1)c1cn(C2CC2)nn1
**A:** 5

----------
- assayTarget: human Cot catalytic domain (30-397 amino acids) (Homo sapiens, UniProt P41279)
- Construct: Purified recombinant human Cot catalytic domain (30-397 amino acids) was purchased from Cama Biosciences; purchased Cama Biosciences (so in the source)
- assayNotes: High Throughput Cot Biochemical Assay (KinEASE TR-FRET)
- details: Cot KinEASE TR-FRET (HTRF) biochemical assay, 400 μM ATP; read-out: IC50 HTRF
assayEndpoint: IC50
Just so you know, I need the unit written after the number.

compound	IC50
N#Cc1cnc2c(Cl)cc(N[C@@H](c3ccc(F)cc3)c3cn(C4CC4)nn3)cc2c1NCC1CCCOC1 (some centres unmarked)	44 nM
N#Cc1cnc2c(Cl)cc(N[C@@H](c3ccc(F)cc3)c3cn(-c4cccnc4)nn3)cc2c1Nc1cnc(F)c(F)c1	37 nM
[2H][C@](Nc1cc(Cl)c2ncc(C#N)c(Nc3cccc(Cl)c3)c2c1)(c1cccc(C#N)c1)c1cn(C2CC2)nn1	5 nM
[2H][C@](Nc1cc(Cl)c2ncc(C#N)c(NC3CC34CCCCC4)c2c1)(c1ccc(F)cc1)c1cn(C2CC2)nn1 (some centres unmarked)	99 nM
CC(C)(C)CNc1c(C#N)cnc2c(Cl)cc(N[C@@H](c3ccc(F)cc3)c3cn(-c4ccncc4)nn3)cc12	179 nM
[2H][C@](Nc1cc(Cl)c2ncc(C#N)c(NC3(C)COC3)c2c1)(c1ccc(F)cc1)c1cn(C2CC2)nn1	151 nM

**Q:** # input compound: [2H][C@](Nc1cc(Cl)c2ncc(C#N)c(N[C@H]3CCCC[C@@H]3O)c2c1)(c1ccc(F)cc1)c1cn(C2CC2)nn1 ; wanted: its IC50
**A:** 294 nM

**Q:** # input compound: N#CCC[C@@H](Nc1c(C#N)cnc2c(Cl)cc(N[C@H](c3cn(C4(C#N)CC4)nn3)c3ccccc3Cl)cc12)c1ccccc1 ; wanted: its IC50
**A:** 2 nM

**Q:** # input compound: Cn1cc(C(Nc2cc(Br)c3ncc(C#N)c(Nc4ccc(F)c(Cl)c4)c3c2)c2ccc(F)cc2)nn1 (centres unmarked) ; wanted: its IC50
**A:** 33 nM

----------
- assayTarget: human Cot catalytic domain (30-397 amino acids) (Homo sapiens)
- Construct: Purified recombinant human Cot catalytic domain (30-397 amino acids) was purchased from Cama Biosciences; purchased Cama Biosciences (so in the source)
- assayNotes: High Throughput Cot Biochemical Assay (KinEASE TR-FRET)
- details: Cot biochemical HTRF (KinEASE TR-FRET) assay; read-out: IC50 HTRF
pIC50: −log10 of the molar value.
Classes by pIC50: lower bin = under 7, middle bin = from 7 up to 8, upper bin = 8 and over

**Q:** Category lookup for the compound CC(C)(C)N1CCC(n2cc([C@@H](Nc3cc(Cl)c4ncc(C#N)c(NCc5ccccc5Cl)c4c3)c3ccccc3)nn2)CC1
**A:** middle bin

**Q:** Category lookup for the compound CC[C@@H](Nc1c(C#N)cnc2c(Cl)cc(N[C@@H](c3cccc(C(=O)N4CC(F)C4)c3)c3c[nH]nn3)cc12)c1ccccc1
**A:** upper bin

**Q:** Category lookup for the compound C[C@H](Nc1c(C#N)cnc2c(Cl)cc(N[C@@H](c3ccccc3)c3cn(C4CCN(C(C)(C)C)CC4)nn3)cc12)C1CCOCC1
**A:** lower bin

**Q:** Category lookup for the compound CC(C)(C)N1CCC(n2cc([C@@H](Nc3cc(Cl)c4ncc(C#N)c(NCCCc5ccccc5)c4c3)c3ccc(Cl)cc3)nn2)CC1
**A:** lower bin

**Q:** Category lookup for the compound CCN1CC(Cn2cc([C@@H](Nc3cc(Cl)c4ncc(C#N)c(Nc5ccc(F)c(Cl)c5)c4c3)c3ccccc3)nn2)C1
**A:** upper bin
